assay: Solubility of compound in phosphate buffer at pH 7; format: physicochemical
readout.label: solubility (µg/mL)
Form entry: value (µg/mL) — number only.

Looking up "CCNC(=O)Nc1cc2c(-c3ccnc(C)c3)ccc(CNC(=O)OC)c2cn1" , I see its solubility listed as 20

====

tested on: Staphylococcus aureus; assay: Antibacterial activity against Staphylococcus aureus ATCC 29213 by broth microdilution method; type: functional
Hi there, I'd appreciate the recorded log10 MIC for every entry that follows.
Values reflect log10 of reported MIC (µg/mL).

Looking up "CCNC(=O)Nc1cc2c(-c3ccnc(C)c3)ccc(CNC(=O)OC)c2cn1" , I see its log10 MIC listed as -1.22

Looking up "CCNC(=O)Nc1cc2c(-c3ccncc3)ccc(CNC(=O)OC)c2cn1" , I see its log10 MIC listed as -0.90

Looking up "CCNC(=O)Nc1cc2c(-c3ccnc(C)c3)ccc(C)c2cn1" , I see its log10 MIC listed as -0.30

Looking up "CCNC(=O)Nc1cc2c(-c3ccncc3)ccc(CNC(=O)OCCNCC(C)(C)C)c2cn1" , I see its log10 MIC listed as 0.60

Looking up "CCNC(=O)Nc1cc2c(-c3ccnc(C)c3)ccc(CNC(=O)CCOC)c2cn1" , I see its log10 MIC listed as -0.30

Looking up "CCNC(=O)Nc1cc2c(-c3ccnc(C)c3)ccc(Cc3cccc(C(=O)O)c3)c2cn1" , I see its log10 MIC listed as -0.30

Looking up "CCNC(=O)Nc1cc2c(-c3ccnc(C)c3)ccc(COC(=O)N3CCNCC3)c2cn1" , I see its log10 MIC listed as 0.30

Looking up "CCNC(=O)Nc1cc2c(-c3ccnc(C)c3)ccc(CNC(=O)OCCOC)c2cn1" , I see its log10 MIC listed as -0.90

====

assay: AUC in mouse at 30 mg/kg, po after 24 hrs by LC-MS/MS analysis; format: ADME, organism-based; design: time < 24 hr, dose 30 mg/kg, route oral; conditions: in vivo
Hi there, I'd appreciate the recorded AUC at 24 h for every entry that follows.
Form entry: value (ng·h/mL) — number only.

Looking up "CCNC(=O)Nc1cc2c(-c3ccnc(C)c3)ccc(CNC(=O)OC)c2cn1" , I see its AUC at 24 h listed as 45300

Looking up "CCNC(=O)Nc1cc2c(-c3ccnc(C)c3)ccc(CNC(C)=O)c2cn1" , I see its AUC at 24 h listed as 120

====

Hi there, I'd appreciate the recorded MIC for every entry that follows.
test system: Staphylococcus aureus; experiment: Antibacterial activity against methicillin/fluoroquinolone-resistant Staphylococcus aureus A-798 harboring topoisomerase gyrA S84L mutant/grlA S80F/Glu84V mutant by broth microdilution method; assay type: functional
Form entry: value (µg/mL) — number only.

Looking up "CO[C@@H]1[C@@H](OC(N)=O)[C@@H](O)[C@H](Oc2ccc3c(O)c(NC(=O)c4ccc(O)c(CC=C(C)C)c4)c(=O)oc3c2C)OC1(C)C" , I see its MIC listed as 0.125

Looking up "CCNC(=O)Nc1cc2c(-c3ccnc(C)c3)ccc(CNC(=O)OC)c2cn1" , I see its MIC listed as 0.06

Looking up "CCNC(=O)Nc1cc2c(-c3ccncc3)ccc(C)c2cn1" , I see its MIC listed as 0.5

====

assay: Tmax in Wistar rat at 2 mg/kg, po administered as suspension up to 24 hrs by LC-MS/MS analysis; format: ADME, organism-based; details: in vivo
readout.label: Tmax (min)
Form entry: value (min) — number only.

Looking up "CCNC(=O)Nc1cc2c(-c3ccnc(C)c3)ccc(CNC(=O)OC)c2cn1" , I see its Tmax listed as 15

====

Hi there, I'd appreciate the recorded MIC for every entry that follows.
system: Staphylococcus aureus; experiment: Antibacterial activity against Staphylococcus aureus ATCC 29213 by broth microdilution method; format: functional
Form entry: value (µg/mL) — number only.

Looking up "CCNC(=O)Nc1cc2c(-c3ccncc3)ccc(CNC(=O)OC(C)C)c2cn1" , I see its MIC listed as 0.25

Looking up CCNC(=O)Nc1cc2c(-c3ccnc(C)c3)ccc(CNC(=O)OC3CCNCC3(F)F)c2cn1 (stereo not given) , I see its MIC listed as 0.5

Looking up "CCNC(=O)Nc1cc2c(-c3ccnc(C)c3)ccc(COC(=O)N3CCN(CC4CC4)CC3)c2cn1.Cl" , I see its MIC listed as 1

Looking up "CCNC(=O)Nc1cc2c(-c3ccnc(C)c3)ccc(Cc3cccnc3)c2cn1.Cl" , I see its MIC listed as 0.5

Looking up "CCNC(=O)Nc1cc2c(-c3ccnc(C)c3)ccc(CNC(=O)OCCO)c2cn1" , I see its MIC listed as 1

Looking up "CCNC(=O)Nc1cc2c(-c3ccncc3)ccc(CNC(=O)OCCO)c2cn1" , I see its MIC listed as 2

Looking up "CCNC(=O)Nc1cc2c(-c3ccnc(C)c3)ccc(Cn3ccnn3)c2cn1" , I see its MIC listed as 0.25

Looking up "CCNC(=O)Nc1cc2c(-c3cccnc3)ccc(C)c2cn1" , I see its MIC listed as 2

Looking up "CCNC(=O)Nc1cc2c(-c3ccnc(C)c3)ccc(CNC(C)=O)c2cn1" , I see its MIC listed as 0.5

Looking up "CCNC(=O)Nc1cc2c(-c3ccncc3)ccc(Nc3cccnc3)c2cn1" , I see its MIC listed as 0.06

Looking up O=C(O)c1cn(C2CC2)c2cc(N3CCNCC3)c(F)cc2c1=O [CIPROFLOXACIN] , I see its MIC listed as 0.25

Looking up "CCNC(=O)Nc1cc2c(-c3ccncc3)ccc(CNC(=O)OCCN3CCOCC3)c2cn1.Cl" , I see its MIC listed as 4

Looking up CO[C@@H]1[C@@H](OC(N)=O)[C@@H](O)[C@H](Oc2ccc3c(O)c(NC(=O)c4ccc(O)c(CC=C(C)C)c4)c(=O)oc3c2C)OC1(C)C [NOVOBIOCIN] , I see its MIC listed as 0.25

Looking up CCNC(=O)Nc1cc2c(-c3ccnc(C)c3)ccc(COC(=O)N[C@@H]3CCNC[C@@H]3F)c2cn1 (relative stereo) , I see its MIC listed as 4

Looking up CCNC(=O)Nc1cc2c(-c3ccnc(C)c3)ccc(COC(=O)N[C@@H]3CCNC[C@H]3F)c2cn1 (relative stereo) , I see its MIC listed as 2

====

test system: Enterococcus faecium; assay: Antibacterial activity against vancomycin/fluoroquinolone-resistant Enterococcus faecium A-949 harboring topoisomerase gyrA E88K mutant/parC S80R mutant by broth microdilution method; type: functional
Hi there, I'd appreciate the recorded MIC for every entry that follows.
Form entry: value (µg/mL) — number only.

Looking up "CCNC(=O)Nc1cc2c(-c3ccnc(C)c3)ccc(CNC(=O)OC)c2cn1" , I see its MIC listed as 1

Looking up "CCNC(=O)Nc1cc2c(-c3ccnc(C)c3)ccc(Nc3ccc(C)nc3)c2cn1" , I see its MIC listed as 0.06

Looking up "C#CCOC(=O)NCc1ccc(-c2ccnc(C)c2)c2cc(NC(=O)NCC)ncc12" , I see its MIC listed as 1

Looking up "CCNC(=O)Nc1cc2c(-c3ccncc3)ccc(C)c2cn1" , I see its MIC listed as 1

Looking up CO[C@@H]1[C@@H](OC(N)=O)[C@@H](O)[C@H](Oc2ccc3c(O)c(NC(=O)c4ccc(O)c(CC=C(C)C)c4)c(=O)oc3c2C)OC1(C)C [NOVOBIOCIN] , I see its MIC listed as 2

====

assay: Protein binding to mouse plasma by rapid equilibrium dialysis method; assay type: ADME, cell-free; settings: read-out: PPB (converted)
Hi there, I'd appreciate the recorded fraction unbound for every entry that follows.
When you answer, write just the number.

Looking up "CCNC(=O)Nc1cc2c(-c3ccnc(C)c3)ccc(CNC(C)=O)c2cn1" , I see its fraction unbound listed as 0.123

Looking up "CCNC(=O)Nc1cc2c(-c3ccnc(C)c3)ccc(COC(=O)N3CCN(C)CC3)c2cn1" , I see its fraction unbound listed as 0.052

Looking up "CCNC(=O)Nc1cc2c(-c3ccnc(C)c3)ccc(CNC(=O)OC)c2cn1" , I see its fraction unbound listed as 0.035

Looking up "CCNC(=O)Nc1cc2c(-c3ccnc(C)c3)ccc(CNC(=O)OCCOC)c2cn1" , I see its fraction unbound listed as 0.045

====

test: Volume of distribution in steady state in Wistar rat at 0.5 mg/kg, iv administered as solution up to 24 hrs by LC-MS/MS analysis; type: ADME, organism-based; details: in vivo, read-out: Vdss
readout.label: Vd (L/kg)
Form entry: value (L/kg) — number only.

Looking up "CCNC(=O)Nc1cc2c(-c3ccnc(C)c3)ccc(CNC(=O)OC)c2cn1" , I see its Vd listed as 0.65

====

assay: AUC in mouse at 100 mg/kg, po after 24 hrs by LC-MS/MS analysis; format: ADME, organism-based; set-up: time < 24 hr, dose 100 mg/kg, route oral; details: in vivo
readout.label: AUC at 24 h (ng·h/mL)
Form entry: value (ng·h/mL) — number only.

Looking up "CCNC(=O)Nc1cc2c(-c3ccnc(C)c3)ccc(COC(=O)N3CCN(C)CC3)c2cn1" , I see its AUC at 24 h listed as 9200

Looking up "CCNC(=O)Nc1cc2c(-c3ccnc(C)c3)ccc(CNC(=O)OCCOC)c2cn1" , I see its AUC at 24 h listed as 14000
